# System: glycogen synthase kinase-3 (GSK3A per assay name; protocol says GSK3B)
# TEST_PROTOCOL: GSK3 binders on small-molecule microarrays, primary screen, biochemical, small-molecule microarray, 635 nm fluorescence, GSK3A (AID 1103); also: the record names both GSK3A and GSK3B
# CONDITIONS: small-molecule microarray binding, fluorescence 635 nm; higher = more signal

{"MOLECULE": "NC(=O)NCC#Cc1ccc2c(c1)[C@]1(C(=O)N2)[C@H](c2ccc(O)cc2)N2[C@H](c3ccccc3)[C@H](c3ccccc3)OC(=O)[C@H]2[C@@H]1C(=O)Nc1nc2ccccc2s1", "SYSTEM_UNDER_TEST": "glycogen synthase kinase-3 (GSK3A per assay name; protocol says GSK3B)", "composite z-score": 0.0394}
{"MOLECULE": "Cc1ccc(S[C@]2(C(=O)NCc3ccccc3)CC(=O)N(C(C)C)[C@@H]2c2ccc(CO)cc2I)cc1", "SYSTEM_UNDER_TEST": "glycogen synthase kinase-3 (GSK3A per assay name; protocol says GSK3B)", "composite z-score": -0.687}
{"MOLECULE": "O=C1O[C@@H](c2ccccc2)[C@@H](c2ccccc2)N2[C@@H](c3ccc(O)cc3)[C@]3(C(=O)Nc4ccc(C#CCCO)cc43)[C@@H](C(=O)NC[C@H](O)c3ccccc3)[C@H]12", "SYSTEM_UNDER_TEST": "glycogen synthase kinase-3 (GSK3A per assay name; protocol says GSK3B)", "composite z-score": -0.375}
{"MOLECULE": "C#CCNC(=O)[C@H](Cc1ccccc1)NC(=O)[C@@H](N=[N+]=[N-])C(C)C", "SYSTEM_UNDER_TEST": "glycogen synthase kinase-3 (GSK3A per assay name; protocol says GSK3B)", "composite z-score": 0.596}
{"MOLECULE": "COc1ccc(NN2C(C(O)c3ccco3)C=CC3C(=O)N(C4CCCCC4)C(=O)C32)cc1 (centres undefined)", "SYSTEM_UNDER_TEST": "glycogen synthase kinase-3 (GSK3A per assay name; protocol says GSK3B)", "composite z-score": 1.32}
{"MOLECULE": "C=CCOC(=O)[C@@H]1[C@H]2C(=O)O[C@H](c3ccccc3)[C@H](c3ccccc3)N2[C@H](c2ccc(OCCOC(=O)[C@H]3C[C@H]4C(=O)N[C@@H](CCCCNC(C)=O)C(=O)N4[C@H]3c3cccc(OCCO)c3)cc2)[C@@]12C(=O)Nc1ccc(I)cc12", "SYSTEM_UNDER_TEST": "glycogen synthase kinase-3 (GSK3A per assay name; protocol says GSK3B)", "composite z-score": 1.32}
{"MOLECULE": "C=C(CCCC)C(=O)CC[C@@H](OC(=O)c1cccnc1)c1ccccc1OCCO", "SYSTEM_UNDER_TEST": "glycogen synthase kinase-3 (GSK3A per assay name; protocol says GSK3B)", "composite z-score": -0.164}
{"MOLECULE": "CCOC(=O)[C@H]1C/C=C/C[C@H](C(=O)OCC)C(=O)O[C@H]2[C@@H](OC)O[C@H](CO)[C@@H](OC(=O)Nc3ccc(OC)cc3)[C@@H]2OC1=O", "SYSTEM_UNDER_TEST": "glycogen synthase kinase-3 (GSK3A per assay name; protocol says GSK3B)", "composite z-score": 1.03}
{"MOLECULE": "O=C1OC[C@@H](c2ccccc2)N2CC(/C=C/c3ccccc3)=CC12 (some centres undefined)", "SYSTEM_UNDER_TEST": "glycogen synthase kinase-3 (GSK3A per assay name; protocol says GSK3B)", "composite z-score": -0.511}
{"MOLECULE": "[N-]=[N+]=NCc1ccccc1C[C@@]1(C(=O)N2CCCCC2)N=C(c2ccc(OCCCO)cc2)O[C@@H]1c1ccccc1N=[N+]=[N-]", "SYSTEM_UNDER_TEST": "glycogen synthase kinase-3 (GSK3A per assay name; protocol says GSK3B)", "composite z-score": 0.293}
{"MOLECULE": "COCCOC(=O)N1C(=O)[C@@]2(c3cc(C#CC4(O)CCCCCC4)ccc31)[C@H](C(N)=O)[C@H]1C(=O)O[C@H](c3ccccc3)[C@H](c3ccccc3)N1[C@@H]2c1ccc(O)cc1", "SYSTEM_UNDER_TEST": "glycogen synthase kinase-3 (GSK3A per assay name; protocol says GSK3B)", "composite z-score": 1.01}
{"MOLECULE": "O=C(NC1CC1)[C@@H]1c2ccccc2C(=O)N(Cc2ccccc2)[C@H]1c1ccc(CO)cc1", "SYSTEM_UNDER_TEST": "glycogen synthase kinase-3 (GSK3A per assay name; protocol says GSK3B)", "composite z-score": 0.714}
{"MOLECULE": "C=C(/C(=C/C[C@@H](OC(=O)c1ccncc1)c1ccccc1OCCO)c1cc(C(=O)OC)ccc1OC)C(C)C", "SYSTEM_UNDER_TEST": "glycogen synthase kinase-3 (GSK3A per assay name; protocol says GSK3B)", "composite z-score": 0.759}
{"MOLECULE": "O=C1NC(=O)C2C1C=CC(C(O)c1c(F)cccc1Cl)N2Nc1ccccn1 (centres undefined)", "SYSTEM_UNDER_TEST": "glycogen synthase kinase-3 (GSK3A per assay name; protocol says GSK3B)", "composite z-score": 0.198}
